# reported CC50 at 5 days; entries follow
protocol.notes: Test B: Cytotoxicity Assay
Type: cell-based
measurement.parameters: human, uninfected MT-4 cells, CellTiter-Glo
readout.type: CC50 at 5 days (µM)

| compound | readout.type | readout.value |
| --- | --- | --- |
| Cn1nc(NS(C)(=O)=O)c2c(Cl)ccc(-c3ccc(C#CC4(CO)CC4)nc3[C@H](Cc3cc(F)cc(F)c3)NC(=O)Cn3nc(C(F)F)c4c3C(F)(F)[C@@H]3C[C@H]43)c21 [Compound 94B] | CC50 at 5 days | 12.4 |
| Cn1nc(NS(C)(=O)=O)c2c(Cl)ccc(-c3ccc(C#CC4(O)CCNC4)nc3[C@H](Cc3cc(F)cc(F)c3)NC(=O)Cn3nc(C(F)(F)F)c4c3C(F)(F)[C@@H]3C[C@H]43)c21 (stereo partly shown) | CC50 at 5 days | 5.19 |
| Cn1nc(NS(C)(=O)=O)c2c(Cl)ccc(-c3ccc(C#CC4CC4)nc3[C@H](Cc3cc(F)cc(F)c3)NC(=O)Cn3nc(C(F)F)c4c3C(F)(F)[C@@H]3C[C@H]43)c21 | CC50 at 5 days | 20.1 |
| Cn1nc(NS(C)(=O)=O)c2c(Cl)ccc(-c3ccc(C#CC4(O)CO[C@H]5OCC[C@H]54)nc3[C@H](Cc3cc(F)cc(F)c3)NC(=O)Cn3nc(C(F)(F)F)c4c3C(F)(F)[C@@H]3C[C@H]43)c21 (stereo partly shown) [Compound 50B] | CC50 at 5 days | 10 |
| Cn1nc(NS(C)(=O)=O)c2c(Cl)ccc(-c3ccc(C#CC4(O)CO[C@H]5OCC[C@H]54)nc3[C@H](Cc3cc(F)cc(F)c3)NC(=O)Cn3nc(C(F)F)c4c3C(F)(F)[C@@H]3C[C@H]43)c21 (stereo partly shown) | CC50 at 5 days | 17.1 |
| Cn1nc(NS(C)(=O)=O)c2c(Cl)ccc(-c3ccc(C#CC4COCCN4)nc3[C@H](Cc3cc(F)cc(F)c3)NC(=O)Cn3nc(C(F)(F)F)c4c3C(F)(F)[C@@H]3C[C@H]43)c21 (stereo partly shown) | CC50 at 5 days | 20.6 |
| Cc1cc(C#Cc2ncc(-c3ccc4c(c3)C(=O)NC4)c([C@H](Cc3cc(F)cc(F)c3)NC(=O)Cn3nc(C(F)F)c4c3C(F)(F)CCC4(F)F)n2)ccn1 | CC50 at 5 days | 0.761 |
| CN1CCN(CC#Cc2ccc(-c3cccc4c(NS(C)(=O)=O)nn(C)c34)c([C@H](Cc3cc(F)cc(F)c3)NC(=O)Cn3nc(C(F)(F)F)c4c3C(F)(F)[C@@H]3C[C@H]43)n2)CC1 | CC50 at 5 days | 8.53 |
| Cn1nc(NS(C)(=O)=O)c2c(Cl)ccc(-c3ccc(C#CC(C)(C)N4CCOC4=O)nc3[C@H](Cc3cc(F)cc(F)c3)NC(=O)Cn3nc(C(F)(F)F)c4c3C(F)(F)[C@@H]3C[C@H]43)c21 | CC50 at 5 days | 20.7 |
| CC(=O)N1CCO[C@](C)(C#Cc2ccc(-c3ccc(Cl)c4c(NS(C)(=O)=O)nn(C)c34)c([C@H](Cc3cc(F)cc(F)c3)NC(=O)Cn3nc(C(F)F)c4c3C(F)(F)[C@@H]3C[C@H]43)n2)C1 | CC50 at 5 days | 21.4 |
